biological target: human A2b adenosine receptor (Homo sapiens (Human), UniProt P29275); assay: A2b radioligand filtration binding assay (tritiated proprietary A2b antagonist, HEK293 membranes); details: unstarred values: radioligand binding
Sequence (P29275 whole entry): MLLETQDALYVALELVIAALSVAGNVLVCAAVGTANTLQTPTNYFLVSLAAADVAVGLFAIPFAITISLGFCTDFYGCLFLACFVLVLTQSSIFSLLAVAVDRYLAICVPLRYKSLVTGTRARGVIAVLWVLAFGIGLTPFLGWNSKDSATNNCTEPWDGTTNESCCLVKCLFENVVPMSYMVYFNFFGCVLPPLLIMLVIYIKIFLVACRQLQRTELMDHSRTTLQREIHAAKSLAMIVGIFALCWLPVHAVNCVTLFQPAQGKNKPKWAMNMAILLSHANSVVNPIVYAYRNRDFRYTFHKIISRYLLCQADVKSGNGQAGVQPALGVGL
Property Measured: log10(IC50) (log10 of the value in µM)

INSERT INTO results (compound, tested_on, readout_number) VALUES
  ('COc1ccc2c(c1)nc(N)n1nc([C@@H]3CCCN(c4ccc(OC(F)F)nc4)C3)nc21 [Example 191]', 'human A2b adenosine receptor (Homo sapiens (Human), UniProt P29275)', -1.74),
  ('COc1cccc2c1nc(N)n1nc([C@@H]3CC[C@H](C)N(c4cnn(C(C)C(C)(C)O)c4)C3)nc21 (single isomer, unassigned) [Example 147C]', 'human A2b adenosine receptor (Homo sapiens (Human), UniProt P29275)', -0.11),
  ('Cc1cccc2c1nc(N)n1nc(C3CCCN(c4cnn(C)c4)C3)nc21 (single isomer, unassigned) [Example 171]', 'human A2b adenosine receptor (Homo sapiens (Human), UniProt P29275)', -0.02),
  ('Cc1ccc2c(c1)nc(N)n1nc(C3CCCN(c4cnn(C)c4)C3)nc21 (single isomer, unassigned) [Example 199]', 'human A2b adenosine receptor (Homo sapiens (Human), UniProt P29275)', -0.59),
  ('COc1cccc2c1nc(N)n1nc([C@@H]3CCC4CCC3N4c3cnn(C)c3)nc21 (mixture of isomers) [Example 130B]', 'human A2b adenosine receptor (Homo sapiens (Human), UniProt P29275)', 0.55),
  ('COc1cccc2c1nc(N)n1nc([C@@H]3CCCN(c4cnc(C5CC5)cn4)C3)nc21 [Example 105]', 'human A2b adenosine receptor (Homo sapiens (Human), UniProt P29275)', -0.78),
  ('COc1cccc2c1nc(N)n1nc([C@@H]3CCCN(c4cnn(C5CCCC5(C)O)c4)C3)nc21 (single isomer, unassigned) [Example 59A]', 'human A2b adenosine receptor (Homo sapiens (Human), UniProt P29275)', -2.20);

* * *

target: human A2a adenosine receptor (Homo sapiens (Human)); assay: A2a receptor affinity radioligand binding assay ([3H] SCH58261, membranes from HEK293 or CHO cells); details: unstarred values: radioligand binding
Output Yes for records whose IC50 is lower than 3 nM, No for records at or above 3 nM.

INSERT INTO assay_data (compound, tested_on, cat) VALUES
  ('COc1cccc2c1nc(N)n1nc(C3CCC(C)N(c4cnn(C(C)(C)CO)c4)C3)nc21 (single isomer, unassigned) [Example 146D]', 'human A2a adenosine receptor (Homo sapiens (Human))', 'Yes'),
  ('COc1cccc2c1nc(N)n1nc(C3CCC(C)N(c4cnn(C5CC5)c4)C3)nc21 (single isomer, unassigned) [Example 141B]', 'human A2a adenosine receptor (Homo sapiens (Human))', 'No'),
  ('COc1cccc2c1nc(N)n1nc(C3CN(c4cnn(CC(C)(C)O)c4C)CC(F)(F)C3)nc21 (single isomer, unassigned) [Example 159B]', 'human A2a adenosine receptor (Homo sapiens (Human))', 'Yes'),
  ('COc1cccc2c1nc(N)n1nc([C@@H]3CCCN(c4cc(C(F)(F)F)n(C)n4)C3)nc21 [Example 78]', 'human A2a adenosine receptor (Homo sapiens (Human))', 'No'),
  ('COc1cccc2c1nc(N)n1nc(C3CN(c4cnn(C5CC5)c4)CC(F)(F)C3)nc21 (single isomer, unassigned) [Example 154B]', 'human A2a adenosine receptor (Homo sapiens (Human))', 'No'),
  ('COc1ccc2c(c1)nc(N)n1nc([C@@H]3CCCN(c4cnn([C@@H](C)C(C)(C)O)c4C)C3)nc21 [Example 189B]', 'human A2a adenosine receptor (Homo sapiens (Human))', 'Yes'),
  ('COc1cccc2c1nc(N)n1nc([C@@H]3CCCN(c4cnn([C@@H]5CCCC[C@]5(C)O)c4)C3)nc21 [Example 42]', 'human A2a adenosine receptor (Homo sapiens (Human))', 'Yes');

* * *

target: human A2b adenosine receptor (Homo sapiens (Human), UniProt P29275); experiment: A2b radioligand filtration binding assay (tritiated proprietary A2b antagonist, HEK293 membranes); conditions: unstarred values: radioligand binding
Strictly below 200 nM in IC50: Condition met. Otherwise: Condition not met.

INSERT INTO measurements (compound, cat) VALUES
  ('C[C@H]1CC[C@@H](c2nc3c4ccc(C#N)cc4nc(N)n3n2)CN1c1cnn(CC(C)(C)O)c1', 'Condition not met'),
  ('COc1cccc2c1nc(N)n1nc([C@@H]3CCCN(c4cnn(C(C)(C)C(=O)NC5CCC5)c4)C3)nc21', 'Condition met'),
  ('COc1cccc2c1nc(N)n1nc([C@@H]3CCCN(c4cnn(C)n4)C3)nc21', 'Condition met'),
  ('COc1ccc2c(c1)nc(N)n1nc([C@@H]3CCCN(c4cnn(CC5(CF)COC5)c4)C3)nc21', 'Condition not met'),
  ('COc1cccc2c1nc(N)n1nc([C@@H]3CCN(c4cnn(CC5CC5)c4)C3)nc21', 'Condition met'),
  ('COc1cccc2c1nc(N)n1nc([C@@H]3CCCN(c4ccn(C)c(=O)c4)C3)nc21', 'Condition not met'),
  ('COc1ccc2c(c1)nc(N)n1nc([C@@H]3CCCN(c4cnn([C@H](C)C(C)(C)O)c4C)C3)nc21 [Example 189A]', 'Condition not met'),
  ('COc1cccc2c1nc(N)n1nc([C@@H]3CCC[C@](O)(c4cnn(CC(C)(C)O)c4)C3)nc21 (single isomer, unassigned)', 'Condition met'),
  ('C[C@H]1CC[C@@H](c2nc3c4ccc(Cl)cc4nc(N)n3n2)CN1c1cnn(CC(C)(C)O)c1', 'Condition met'),
  ('COc1ccc2c(c1)nc(N)n1nc([C@@H]3CC[C@H](C)N(c4cnn([C@H](C)C(C)(C)O)c4)C3)nc21 [Example 211B]', 'Condition met'),
  ('COc1cccc2c1nc(N)n1nc([C@@H]3CCCN(c4cnn(C5CCOCC5)c4)C3)nc21', 'Condition met'),
  ('COc1cccc2c1nc(N)n1nc([C@@H]3CCCN(c4ccc(=O)n(C(C)C)c4)C3)nc21', 'Condition not met'),
  ('COc1ccc2c(c1)nc(N)n1nc([C@@H]3CC[C@H](C)N(c4cnn([C@@H](C)C(C)(C)O)c4)C3)nc21 [Example 211A]', 'Condition met'),
  ('COc1cccc2c1nc(N)n1nc(C3CN(c4cnn(CC5(O)CCC5)c4)CC(F)(F)C3)nc21 (single isomer, unassigned) [Example 157B]', 'Condition not met');

* * *

target: human A2a adenosine receptor (Homo sapiens (Human), UniProt P29274); assay: A2a receptor affinity radioligand binding assay ([3H] SCH58261, membranes from HEK293 or CHO cells); conditions: unstarred values: radioligand binding
Sequence (P29274 whole entry): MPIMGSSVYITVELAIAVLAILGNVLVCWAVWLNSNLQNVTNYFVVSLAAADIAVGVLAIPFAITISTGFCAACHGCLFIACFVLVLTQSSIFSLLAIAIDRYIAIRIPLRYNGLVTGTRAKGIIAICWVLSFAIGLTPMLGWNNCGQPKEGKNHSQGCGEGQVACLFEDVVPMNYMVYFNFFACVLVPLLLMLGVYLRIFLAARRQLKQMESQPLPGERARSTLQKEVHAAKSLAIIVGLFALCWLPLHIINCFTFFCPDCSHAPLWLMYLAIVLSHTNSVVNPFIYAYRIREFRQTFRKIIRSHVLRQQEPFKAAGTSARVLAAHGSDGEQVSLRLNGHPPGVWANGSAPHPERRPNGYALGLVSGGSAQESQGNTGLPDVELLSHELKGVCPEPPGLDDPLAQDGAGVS
pIC50: −log10 of the molar value.
Assign TRUE whenever pIC50 does not fall below 9; assign FALSE whenever it does.

INSERT INTO results (compound, cat) VALUES
  ('Cn1cc(N2CCCC(c3nc4c5ccc(Cl)cc5nc(N)n4n3)C2)cn1 (single isomer, unassigned)', 'FALSE'),
  ('Cc1ccc2c(c1)nc(N)n1nc(C3CCCN(c4cnn(C)c4)C3)nc21 (single isomer, unassigned)', 'FALSE'),
  ('C[C@H]1CC[C@@H](c2nc3c4ccc(C5CC5)cc4nc(N)n3n2)CN1c1cnn(CC(C)(C)O)c1 (single isomer, unassigned)', 'TRUE'),
  ('COc1cccc2c1nc(N)n1nc([C@H]3CCO[C@@H](c4cnn(C)c4)C3)nc21 [Example 139A]', 'FALSE'),
  ('COc1ccc2c(c1)nc(N)n1nc([C@@H]3CC[C@H](C)N(c4cnn(CC(C)(C)O)c4)C3)nc21', 'TRUE'),
  ('COc1cccc2c1nc(N)n1nc([C@@H]3CCCN(c4cnn(C5CS(=O)(=O)C5)c4)C3)nc21', 'FALSE'),
  ('COc1cccc2c1nc(N)n1nc([C@@H]3CCCN(c4ccc(=O)n(CC(F)(F)F)c4C)C3)nc21', 'FALSE'),
  ('COc1cccc2c1nc(N)n1nc([C@@H]3CCN(c4cnn(C(C)(C)C)c4)C3)nc21', 'FALSE'),
  ('Cn1cc(N2CCC[C@@H](c3nc4c5cccc(OC(F)F)c5nc(N)n4n3)C2)cn1', 'FALSE'),
  ('COc1ccc2c(c1)nc(N)n1nc([C@@H]3CCCN(c4cn([C@H](C)C(C)(C)O)nc4C)C3)nc21 [Example 186A]', 'TRUE'),
  ('COc1cccc2c1nc(N)n1nc([C@@H]3CCCN(c4nn(CC(C)(C)O)cc4C(F)(F)F)C3)nc21', 'TRUE'),
  ('CC[C@H]1CC[C@H](c2nc3c4ccc(OC)cc4nc(N)n3n2)CN1c1cnn(C(C)(C)CO)c1 [Example 215C]', 'FALSE'),
  ('COc1cccc2c1nc(N)n1nc([C@@H]3CCCN(c4cnn([C@@H]5CCCC[C@@H]5O)c4)C3)nc21', 'FALSE'),
  ('COc1cccc2c1nc(N)n1nc([C@@H]3CCCN(c4cn(CC(C)(C)O)nc4C)C3)nc21', 'TRUE'),
  ('CCn1cc(N2C[C@@H](c3nc4c5cccc(OC)c5nc(N)n4n3)CC[C@H]2C)cn1 (single isomer, unassigned) [Example 140A]', 'FALSE'),
  ('Nc1nc2c(OC(F)F)cccc2c2nc([C@@H]3CCCN(c4cnn(C5CC5)c4)C3)nn12', 'FALSE'),
  ('COc1cccc2c1nc(N)n1nc([C@@H]3CCN(c4cnn(CC5CC5)c4)C3)nc21', 'FALSE'),
  ('CC[C@H]1CC[C@H](c2nc3c4cccc(OC)c4nc(N)n3n2)CN1c1cnn(CC(C)(C)O)c1 [Example 216B]', 'TRUE');
